# system-under-test: CXCR4 (Homo sapiens, UniProt P61073)
# Sequence (P61073 whole entry): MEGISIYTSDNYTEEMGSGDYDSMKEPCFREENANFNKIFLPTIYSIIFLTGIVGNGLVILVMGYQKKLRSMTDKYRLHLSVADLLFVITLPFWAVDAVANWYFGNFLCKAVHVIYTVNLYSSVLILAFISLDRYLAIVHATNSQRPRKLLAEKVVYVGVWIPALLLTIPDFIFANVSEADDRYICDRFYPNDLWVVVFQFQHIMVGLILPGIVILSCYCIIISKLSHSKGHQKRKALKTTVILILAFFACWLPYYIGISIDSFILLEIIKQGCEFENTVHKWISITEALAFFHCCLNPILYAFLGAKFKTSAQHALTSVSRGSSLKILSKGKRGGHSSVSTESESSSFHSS
# assay-method-text: [125I]-CXCL12 radio-ligand displacement on membranes of HEK293 cells transfected with CXCR4
# Assay type: binding
# measurement-setup: 75 pM [125I]-CXCL12
# Procedure: To this end, CXCR4 Nanobodies were analysed for their binding to HEK293T-CXCR4 cells, and their ability to compete with the ligand CXCL12 (or SDF-1a) for receptor binding in a radio-ligand displacement assay. The sequences of the respective CXCR4 Nanobodies are depicted in Table 3.1A. Non-specific binding was determined in presence of 100 nM cold SDF-1. The assay was performed three times, and average percentages of SDF-1 inhibition and Ki values were calculated (Table 3.1B).
observation-type: [125I] SDF-1 displacement on CXCR4-Hek pKi +/SEM (n = 3)

If you can, please state the reported [125I] SDF-1 displacement on CXCR4-Hek pKi +/SEM (n = 3) value of 283E2: anti-CXCR4 Nanobody, SEQ ID NO: 11 (protein, Nanobody Sequence) VHH: EVQLVESGGGLVQAGGSLRLSCAVSGTTFSVATLGWYRQAPGQQRALVADISSGGSTNYADSVRGRFTISRDNAKNLAYLQMNSLKPEDTAVYYCNARTSGWRTRSNYWGQGTQVTVSS . 8.29 +/− 0.11

If you can, please state the reported [125I] SDF-1 displacement on CXCR4-Hek pKi +/SEM (n = 3) value of 281A6: anti-CXCR4 Nanobody, SEQ ID NO: 8 (protein, Nanobody Sequence) VHH: EVQLVESGGGLVQTGGSLRLSCAASGGTFNNYAMGWFRRAPGKEREFVAAISRSGVRTGVSALYGDSVKDRFTISRDNAKNTLYLQMNKMKPEDTAVYTCAASAIGSGALRRFEYDSSGQGTQVTVSS . 8.63 +/− 0.02

If you can, please state the reported [125I] SDF-1 displacement on CXCR4-Hek pKi +/SEM (n = 3) value of 283F1: anti-CXCR4 Nanobody, SEQ ID NO: 12 (protein, Nanobody Sequence) VHH: EVQLVESGGGLVQAGGSLRLSCVASVNIFGSIAMAWYRQAPGKQRNLVASISSGGRINYADSRKGRFTISRDNTKNTVHLQMNSLEPEDTAVYYCAAGRIGQRTLTFTPDYWGQGTQVTVSS . 7.93 +/− 0.41

If you can, please state the reported [125I] SDF-1 displacement on CXCR4-Hek pKi +/SEM (n = 3) value of 283B6: anti-CXCR4 Nanobody, SEQ ID NO: 10 (protein, Nanobody Sequence) VHH: EVQLVASGGGLVQAGGSLRLSCAVSGTTFSVATLGWYRQAPGQQRALVADISSGGSTNYADSVRGRFTISRDNAKNLAYLQMNSLKPEDTAVYYCNARTSGWRTRSNYWGQGTQVTVSS . 8.78 +/− 0.24
